B1: WW domain-containing transcription regulator protein 1, residues 116 to 162; numbered along this chain, Q9GZV5 (parent)
chain: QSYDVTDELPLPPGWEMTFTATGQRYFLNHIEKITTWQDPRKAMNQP

Variants of: B1
Assay: abundance fitness (aPCA) (normalised: wild type 0, dead -1); higher = more abundant; growth selection in yeast, the domain comes from the species named
Conditions: Homo sapiens
Would you kindly list abundance fitness for each of these variants?
One number for each entry.

[
  {
    "MUTATION_LIST": "P13I",
    "MEASURED_QUANTITY": "abundance fitness",
    "EXPERIMENTAL_VALUE": -0.18
  }
]

Record abundance fitness per entry; entries follow.
1. I31A
2. E16F
3. E16S
4. F27M

1: -0.174; 2: -0.326; 3: -0.081; 4: -0.904

Field: abundance fitness. Fill in for each record below.
1. M17Y
2. K33H

-0.264
-0.2

Record abundance fitness for all entries; do not skip any.
1. F27C
2. V5K
3. P10H
4. M44F
5. V5Y

-0.825
-0.023
-0.181
0.068
-0.354

// for each variant below, give its abundance fitness
1. P40N
2. D7I
3. G23M
4. Q46K
5. F27K
6. P40D
7. I31P

-0.796
-0.195
-0.875
-0.164
-0.818
-0.914
-0.331
